# assay-remarks: yeast display, Sf9 membrane polyspecificity reagent, FACS + sequencing; frameworks hold sequencing errors
quantity-kind: polyreactivity (PSR sort gate)

chain-sequence	experimental-result
QVQLVESGGGLVQAGGSLRLSCAASGRTIGLNGMGWYRQAPGNERELVAGISWSGGSTNYADSVKGRFTISRDNAKNTVYLQMNSLKPEDTAVNYCPPDFVYYVVNDFGWSYAYEYWGQGTQVTVSS	low polyreactivity
QVQLVESGGGLVQAGGSLRLSCAASGRTFYYYAMGWYRQAPGKERELVAAINWSSGSTYYADSVKGRFTISRDNAKNTVYLQMNSLKPEDTAVYYCNAESRWYIIPYGDFDYWGQGTQVTVSS	low polyreactivity

---

# assay-remarks: yeast display, Sf9 membrane polyspecificity reagent, FACS + sequencing; frameworks hold sequencing errors
quantity-kind: polyreactivity (PSR sort gate)

// worked examples, polyreactivity (PSR sort gate) included
chain-sequence	experimental-result
QVQLVESGGGLVQAGGSLRLSCAASGSTISRYAMGWYRQAPGKEREFVAAISWRGGSTYYADSVKGRFTISRDNAKNTVYLQLNSLKPEDTAVYYCNADYRYARKGHYGKFGYWGQGTQVNVSS	high polyreactivity
QVQLVESGGGLVQAGGSLRLSCAASGRIFVYYAMGWYRQAPGKERELVAAITSRDDSTYYADSVKGRFTISRDNAKNTVYLQMNSLKPEDTAVYYCNVVPKSRDWQSYGSWGQGTQVTVSS	high polyreactivity
QVQLVESGGGLVQAGGSLRLSCAASGSIFAYYTMGWYRQAPGKERELVATISSGDITNYADSVKGRFTISRDNAKNTVYLQMNSLKPEDTAVYYCAAAELTSYYRTFIHQDYDYWGQGTQVTVSS	low polyreactivity
QVQLEESGGGLVQAGGSLPLSCAASGVIFGYYAMGWYIQAPGKERELVAAISKSGGSTYYADSVKARFTISRDNAKNTVYVQMNSLIPEDTAVYDCNADPRTASDQLEFDYWGQGTQVNVSS	low polyreactivity
QVKLVESGGGLVQAGGSLRLSCAASGFTFYTYAMGWYRQAPGKETELFAAITGSGGRTYYADSVKGRFTISRDNAKNTVYLKMHSLKPEYTSLYYCAALYVYRPRTPYGYWGQGTQVTVSS	high polyreactivity
QVQLVESGGGLVQAGGSLRLSCAASGSTFAVYAMGWYRQAPGKERELVAAITRSGGDTYYADSVKGRFTISRDNAKNTVYLQMNSLKPEDTAVYYCAAAPRYGEEYWGQGTQVTVSS	low polyreactivity
QVQLVESGGGLVQSGGSLRLSCAYSGRTFYRNTMGWYRHAPGKEREFVAAISATAGRTYYADSVKWRFTISRDNAKNTVYLQMNSLKPEDTAVYYCAAVPLRNRWANSWPALDYWGQGTLVTVSS	high polyreactivity
QVQLVESGGGIVQAGRSLRLSCAASGSIFDFNAMGWYRQAPGKERELVAAITWGGGSTYYAYSVKGRFTNSRDNEKNTVYLQIKSLKPEDTAVYYCNAAYGRYRYDYWGQGTQVTVSS	low polyreactivity

Ask: Dear colleague, please send me the reported polyreactivity (PSR sort gate) for QVQLVESGGGLVQAGGTLRISCAASGSIFYLYAMGWYRQAPGKERELVAGIRYRGGSTYYADSVKGRFTISRDNAKNTVYLQMNSLKPEDTAVYYCAAEYGDGRYWSYDYWGQGTQVTVSS when you can.
Result: high polyreactivity

Ask: Dear colleague, please send me the reported polyreactivity (PSR sort gate) for QVQLVESGGGLVQAGGSLRLSCAASGYTFKYNAMGWYRQAPGKERELVAAISSRGDRTYYADSVKGRFTISRDNAKNTVYLQMNSLKPEDTVVYYCNKVARPRSRNDSWGQGTQVTVSS when you can.
Result: high polyreactivity

Ask: Dear colleague, please send me the reported polyreactivity (PSR sort gate) for QVQLVESGGGLVQAGGSLRLSCAASGFIFRGNGMGWYRQAPGNERELVAAISKSGGRTYYADSVKGRFTISRDNAKNTVYLQMNSLKPEDTAVYYCNARRFWRGDYWGQGTQVTVSS when you can.
Result: high polyreactivity

Ask: Dear colleague, please send me the reported polyreactivity (PSR sort gate) for QVQLVESGGGLVQAGGSLRLSCAASGFTFYVNVMGWYRQPPGKEREFVAAIRTRGASTYYADSVKGRFTISRDNAKNTVYLQMNSLKPEDTADYYCAAGWFWNYWYGVSMDYWGQGTQVTVSS when you can.
Result: high polyreactivity

Ask: Dear colleague, please send me the reported polyreactivity (PSR sort gate) for QVQLVESGGGLVQAGGSLRLSCAASGSIFRHNAMGWYRQAPGKERELVAAITSRGGSTYYADSVKGRFTISRDNAKNTVYLQMNSLKPEDTAVYYFAADYSSLSWGYDYWGQGTQVTVSS when you can.
Result: high polyreactivity

Ask: Dear colleague, please send me the reported polyreactivity (PSR sort gate) for QVQLVESGGGLVQAGGSLRLSCAASGFIFPYNAMGWYRQAPGKDRELVAAISWSGSNTYYADSVNGRFTISRDNAMNTVYLQMNSLKPEDTAVYYCAARHSVYYFVQRNGRYGYWGQGTQVTVSW when you can.
Result: high polyreactivity

Ask: Dear colleague, please send me the reported polyreactivity (PSR sort gate) for QVQLVESGGGLVQAGGSLRLSCAASGSISSYAMGWSRQAPGKERELVASITWHGGGTYYADSVKGRFTISRDNAKNTVYLQMNSLKPEDTAVYYCAKDNYLDPPYFYRFAGYDYCGQGTQVTVSS when you can.
Result: low polyreactivity

Ask: Dear colleague, please send me the reported polyreactivity (PSR sort gate) for QVQLVESGGGLVQAGGSLRLSCAAYGSIFEGNPMGWYRQAPGKERELVASISGDGSTNYADSVKGRFTISRDNAKNTVYLQMNSLKPEDTAVYYCNADTISEPGFHMDYWGQGTQVTVSS when you can.
Result: low polyreactivity

---

# assay-remarks: yeast display, Sf9 membrane polyspecificity reagent, FACS + sequencing; frameworks hold sequencing errors
quantity-kind: polyreactivity (PSR sort gate)

// worked examples, polyreactivity (PSR sort gate) included
chain-sequence	polyreactivity (PSR sort gate)
QVQLVESGGGLVQAGGSLRLSCAASGITFDRNVMGWYRKSPGKETELVAAISKSGGRTYYADSVKGRFTISRDIAKNTVYLQMNSLKTEDTAVYDCNADFYSRKSLHQYDYWGQGTQVTVSS	high polyreactivity
QVQLVESGGGLVQAGGSLRLSCAASGRTFPTYAMGWYRQAPGKERELVARITWNGGSTYYADSVKGRFTISRDNAKNTVYLQMNSLKPEDTAVYYCNAAQRIRYYPRYYYGYDYWGQGTQVTVSS	high polyreactivity
QVQLVESGGGLVQAGGSLRLSCAASGRIFYFNTMGWYRQAPGKERELVAAITGSGSSTYYADSVKGRFTISRDNAKNTVYLQMNSLKPEDTAVYYCAAYGFSRNGYTYGHDDWGQGTQVTVSS	low polyreactivity
QVQLVESGGGLVQAGGSLRLSCAASGITFSNYAIGWYRQAPGKERELVAAISKRGGSTYYADSVKGRFTISRDNAKNTVYLQMNSLKPEDTAVYYCAAAGVRVYVRSGLDYWGQGTQVTVSS	high polyreactivity
QVQLVESGGGLVQAGGSLRLSCAASGSIFGAYDMGWSRQAPGKERELVASITSGDSTNYADSVTGRFTISRDNAKNTVYLQMNSLKPEDTAVYYCAADLAVAVAADYDSWGQGTQVTVSS	low polyreactivity
QVQLVESGGGLVQAGGSLRLSCAASGRIFRVYAMGWYRPAPGKERELVATIRRGSSTYYADSVKGRFTISRDNAKNTVYLQMNSLKPEDTAVYYCADRSSRRGPISEGDYWGQGTQVTVSS	high polyreactivity

Ask: Dear colleague, please send me the reported polyreactivity (PSR sort gate) for QVQLVESGGGLVQAGGSLRLSFAASGFTFRNYAKGWYRQAPGKERELVATISRSGCSTYYADSVKGRFTISRDNAKNTVYLQMNSLKPEDTAVYYCAAKTILWKYYPYYYVTYDYWGQGTQVTVSS when you can.
Result: high polyreactivity

Ask: Dear colleague, please send me the reported polyreactivity (PSR sort gate) for QDQLVESAGGLVQAGGSLRLSCAASGRIFKSYAMGWYRQAPGKERELVASTSYTGGSTYYADSVKGRFTISRDNAKNTVYIQRNSLKPDETAVYYCAPKRVRSAGSYGYWGQGTQVTVSS when you can.
Result: low polyreactivity

Ask: Dear colleague, please send me the reported polyreactivity (PSR sort gate) for QVQLVESGGGLVQAGGSLRLSCAASGSIFSLYDMGWYRQAPGKERELVASITWSGGSTDYADSVKGRFTISRDNAKNTVYLQMNSLKPEDTAVYYCAAYSYTSIFDYWGQGTQVTVSS when you can.
Result: low polyreactivity

Ask: Dear colleague, please send me the reported polyreactivity (PSR sort gate) for QVQLVESGGGVVQAGGSLRLSWAASGFIFAVYAMGWYRQSTGKERELVAAITFDGDTTYYADSVKGRFTISRDNANNTVYLQMKILKPDTAVYYCAAEYIKYLWYLHVDYWGQGTQVTVSS when you can.
Result: low polyreactivity

Ask: Dear colleague, please send me the reported polyreactivity (PSR sort gate) for QVQLVESGGGLVQAGGSLRLSCAASGRTFASNDMGWYRHAPGNERELVAGITGSGGSTYYADSVKGRFTISRDNAKNTVYLQMNSLKPEDTAVYYCAADRSRGYGYDYWGQGTQVTVSS when you can.
Result: low polyreactivity
